The values you see were collected from PubChem BioAssay (NCI).

Tested on: LOX IMVI melanoma
test name: NCI-60 one-dose screen, 48 h (100 = growth as untreated, 0 = no growth, -100 = all killed)
particulars: 10 µM unless noted
The panel holds about 83,000 compounds, 20% with a hit somewhere; the sample as a whole holds those more often.
endpoint name: growth (%)
Please reply with the bare figure in % and do not write the unit itself.

Examples from the recorded data:
{"columns": ["compound", "tested system", "growth, %"],
 "data": [
  ["O=C(N/N=C/c1ccc(Cl)cc1)c1ccc(NC(=O)c2ccccn2)cc1", "LOX IMVI melanoma", 54],
  ["O=C(/C=C/c1ccco1)Nc1ncc(Cc2cc(Cl)ccc2Cl)s1", "LOX IMVI melanoma", 25.9],
  ["CN1C(=O)N2CN3CCCN(C3)CN3C(=S)NC1C23 (stereo unspecified)", "LOX IMVI melanoma", 98.7],
  ["O=C(C1=Cc2cc3ccccc3n2Cc2cnnn21)c1ccc(F)cc1", "LOX IMVI melanoma", 98.8],
  ["COC(=O)/C=C1/SC(=NCc2ccccc2)N(CCc2c[nH]c3ccccc23)C1=O", "LOX IMVI melanoma", 70.6]
]}

Turning now to a further record.
Look up growth: O=S(Nc1ccccc1)c1ccc(Cl)cc1 (stereo unspecified)
100
